- Tested on: HCT116 WT cells
- EXPERIMENT: HCT116 WT cell proliferation / viability (CellTiter-Glo, 6 days)
- Assay type: cell-based
- EXPERIMENTAL SETUP: Homo sapiens, HCT-116, 144 h, HCT116 WT cells, 6 days, CellTiter-Glo; read-out: HCT-116 WT IC50
# IC50 values compiled below
Field: numeric (µM). Do not append units.

Worked cases, IC50 given:
{"MOLECULE": "CC(C)N(Cc1ccc(C(F)(F)F)cn1)C(=O)c1ccc2nc(N)c3ccncc3c2c1", "TARGET ENTITY": "HCT116 WT cells", "IC50 [µM]": 0.37}
{"MOLECULE": "C[C@H]1OCc2c1c(N)nc1cnc(C(=O)N(Cc3ccc(C(F)(F)F)nn3)C3CCC3)cc21 (single isomer, unassigned)", "TARGET ENTITY": "HCT116 WT cells", "IC50 [µM]": 2.97}
{"MOLECULE": "CCN(Cc1ccc(C(F)(F)F)cn1)C(=O)c1cc2c(cn1)nc(N)c1cnn(C)c12", "TARGET ENTITY": "HCT116 WT cells", "IC50 [µM]": 0.487}
{"MOLECULE": "Cn1cc(N(Cc2ccc(C(F)(F)F)cn2)C(=O)c2cc3c(cn2)nc(N)c2cnn(C)c23)cn1", "TARGET ENTITY": "HCT116 WT cells", "IC50 [µM]": 0.373}
{"MOLECULE": "CCOc1ccc(CN(C(=O)c2cc3c4c(c(N)nc3cn2)COC4)C23CC(C2)C3)nn1", "TARGET ENTITY": "HCT116 WT cells", "IC50 [µM]": 9.43}
{"MOLECULE": "Nc1nc2cnc(C(=O)N(Cc3ccc(C4CC4)cn3)C3CC3)cc2c2c1COC2", "TARGET ENTITY": "HCT116 WT cells", "IC50 [µM]": 9.04}
{"MOLECULE": "CC(C)CN(Cc1ccc(C(F)(F)F)cn1)C(=O)c1ccc2nc(N)c3ccncc3c2c1", "TARGET ENTITY": "HCT116 WT cells", "IC50 [µM]": 0.231}

Form field IC50, entry `C[C@H](c1ccc(C(F)(F)F)cn1)N(C(=O)c1cc2c(cc1F)nc(N)c1c2cnn1C)C1CC1` : 2.84

###

- Test system: HCT116 WT cells
- EXPERIMENT: HCT116 WT cell proliferation / viability (CellTiter-Glo, 6 days)
- Format: cell-based
- EXPERIMENTAL SETUP: Homo sapiens, HCT-116, 144 h, HCT116 WT cells, 6 days, CellTiter-Glo; read-out: HCT-116 WT IC50
QUANTITY: IC50 (µM)
Field: numeric (µM). Do not append units.

{"MOLECULE": "C[C@H](c1ncccn1)N(Cc1ccc(Cl)nn1)C(=O)c1ccc2nc(N)c3c(c2c1)COC3 [Example 676]", "TARGET ENTITY": "HCT116 WT cells", "VALUE MEASURED": 0.316}
{"MOLECULE": "CC1(CN(Cc2ccc(C(F)(F)F)cn2)C(=O)c2ccc3nc(N)c4c(c3c2)COC4(C)C)CC1 [Example 341]", "TARGET ENTITY": "HCT116 WT cells", "VALUE MEASURED": 3.79}
{"MOLECULE": "COCC(C)N(Cc1ccc(C(F)(F)F)nn1)C(=O)c1cc2c3c(c(N)nc2cn1)[C@@H](C)OC3 (mixture of isomers) [Example 314]", "TARGET ENTITY": "HCT116 WT cells", "VALUE MEASURED": 15.2}

Reported HCT116 WT cells IC50 for item CC1OCc2c1c(N)nc1ccc(C(=O)N(Cc3ccc(C(F)(F)F)cn3)C(C)C)cc21 (stereo not drawn) [Example 931] was 9.6
